# Target System: Glycogen synthase kinase-3 beta (Homo sapiens) (UniProt P49841)
# Sequence (P49841 whole entry, looked up): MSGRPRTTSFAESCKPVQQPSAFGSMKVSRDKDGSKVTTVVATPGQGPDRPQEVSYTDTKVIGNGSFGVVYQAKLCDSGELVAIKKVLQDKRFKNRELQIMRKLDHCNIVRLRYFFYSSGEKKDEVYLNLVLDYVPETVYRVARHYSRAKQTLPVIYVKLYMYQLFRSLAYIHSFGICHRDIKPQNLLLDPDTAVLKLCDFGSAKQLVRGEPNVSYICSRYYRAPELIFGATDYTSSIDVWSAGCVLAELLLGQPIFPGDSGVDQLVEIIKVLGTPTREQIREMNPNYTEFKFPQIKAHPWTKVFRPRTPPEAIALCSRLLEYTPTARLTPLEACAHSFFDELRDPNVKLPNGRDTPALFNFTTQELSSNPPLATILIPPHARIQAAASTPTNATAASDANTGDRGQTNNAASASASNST
# Method: GSK3beta kinase inhibitors, SAR follow-up, biochemical, ADP-Glo luminescence, dry powder samples (AID 623998)
# Experimental Parameters: GSK3beta ADP-Glo luminescence kinase assay, 60 min
Inconclusive results are not listed.
Entries and their measured AC50 follow.

Query block: In one line, give reported AC50 of the entry COc1ccccc1/C=C1\C(=O)CC(C)(C)CC1=Nc1cc(C(F)(F)F)[nH]n1 .
Result block: 7500 nM

----------
# Target System: Glycogen synthase kinase-3 beta (Homo sapiens)
# Method: GSK3beta kinase inhibitors, SAR follow-up, biochemical, ADP-Glo luminescence, dry powder samples (AID 623998)
# Experimental Parameters: GSK3beta ADP-Glo luminescence kinase assay, 60 min
Inconclusive results are not listed.
Entries and their measured AC50 follow.

Solved entries (count: 2):
# Molecule, AC50
measured = [
    ("COc1ccccc1[C@H]1C2=C(CC(C)(C)CC2=O)Nc2n[nH]c(C(F)(F)F)c21", "1590 nM"),
    ("CC(C)c1ccc(-c2nn(-c3ccccc3)cc2/C=N/O)cc1", "737 nM"),
]

Query block: In one line, give reported AC50 of the entry CC1(C)CC(=O)/C(=C\c2ccccc2C(F)(F)F)C(=Nc2cc(C(F)(F)F)[nH]n2)C1 .
Result block: 3110 nM

Query block: In one line, give reported AC50 of the entry Cc1[nH]nc2c1[C@H](c1ccccc1C(F)(F)F)C1=C(CC(C)(C)CC1=O)N2 .
Result block: 5570 nM

----------
# Target System: Glycogen synthase kinase-3 beta (Homo sapiens) (UniProt P49841)
# Method: GSK3beta kinase inhibitors, SAR follow-up, biochemical, ADP-Glo luminescence, dry powder samples (AID 623998)
# Experimental Parameters: GSK3beta ADP-Glo luminescence kinase assay, 60 min
Inconclusive results are not listed.
Entries and their measured AC50 follow.

Solved entries (count: 5):
# Compound, Target System, AC50
measured = [
    ("COc1cccc(C2C3=C(CC(C)(C)CC3=O)Nc3n[nH]c(C)c32)c1 (stereo unspecified)", "Glycogen synthase kinase-3 beta (Homo sapiens) (UniProt P49841)", "1160 nM"),
    ("O=S(=O)(Nc1ccccn1)c1ccc(N=Cc2c(O)[nH]c3ccc4ncsc4c23)cc1", "Glycogen synthase kinase-3 beta (Homo sapiens) (UniProt P49841)", "807 nM"),
    ("O/N=C/c1cn(-c2ccccc2)nc1-c1ccccc1", "Glycogen synthase kinase-3 beta (Homo sapiens) (UniProt P49841)", "2930 nM"),
    ("Cc1cccc(C2C3=C(CC(C)(C)CC3=O)Nc3n[nH]c(C)c32)c1 (stereo unspecified)", "Glycogen synthase kinase-3 beta (Homo sapiens) (UniProt P49841)", "614 nM"),
    ("Cc1[nH]nc2c1[C@@H](c1ccccc1C(F)(F)F)C1=C(CC(C)(C)CC1=O)N2", "Glycogen synthase kinase-3 beta (Homo sapiens) (UniProt P49841)", "37 nM"),
]

Query block: In one line, give reported AC50 of the entry Cc1[nH]nc2c1C(c1ccc(C#N)cc1)C1=C(CC(C)(C)CC1=O)N2 (stereo unspecified) .
Result block: 10400 nM

Query block: In one line, give reported AC50 of the entry O/N=C/c1cn(-c2ccccc2)nc1-c1ccc2c(c1)OCCO2 .
Result block: 577 nM

Query block: In one line, give reported AC50 of the entry Cc1[nH]nc2c1C(c1ccccn1)C1=C(CC(C)(C)CC1=O)N2 (stereo unspecified) .
Result block: 1020 nM

Query block: In one line, give reported AC50 of the entry COc1ccccc1C1C2=C(CC(C)(C)CC2=O)Nc2n[nH]c(C(C)(C)C)c21 (stereo unspecified) .
Result block: 834 nM

Query block: In one line, give reported AC50 of the entry CC1(C)CC(=O)C2=C(C1)Nc1n[nH]c(C(F)(F)F)c1C2c1ccccc1F (stereo unspecified) .
Result block: 184 nM

Query block: In one line, give reported AC50 of the entry COc1ccccc1C1C2=C(CC(C)(C)CC2=O)Nc2[nH]ncc21 (stereo unspecified) .
Result block: 122 nM

Query block: In one line, give reported AC50 of the entry CC1(C)CC(=O)C2=C(C1)Nc1n[nH]c(C(F)(F)F)c1C2c1cc(F)ccc1C(F)(F)F (stereo unspecified) .
Result block: 51.3 nM

Query block: In one line, give reported AC50 of the entry Cc1[nH]nc2c1C(c1ccccc1C(F)(F)F)C1=C(CC(C)(C)CC1=O)N2 (stereo unspecified) .
Result block: 42.5 nM

Query block: In one line, give reported AC50 of the entry CC1(C)CC(=O)C2=C(C1)Nc1n[nH]c(C(F)(F)F)c1C2c1cc(F)ccc1OC(F)(F)F (stereo unspecified) .
Result block: 403 nM

Query block: In one line, give reported AC50 of the entry Cc1[nH]nc2c1C(c1cccs1)C1C(=O)CC(C)(C)CC1=N2 (stereo unspecified) .
Result block: 627 nM

Query block: In one line, give reported AC50 of the entry CC1(C)CC(=O)C2=C(C1)Nc1n[nH]c(C(F)(F)F)c1C2c1cc(F)ccc1F (stereo unspecified) .
Result block: 451 nM

Query block: In one line, give reported AC50 of the entry Cc1[nH]nc2c1C(c1cccc3nonc13)C1=C(CC(C)(C)CC1=O)N2 (stereo unspecified) .
Result block: 50 nM

Query block: In one line, give reported AC50 of the entry COc1ccc(-c2nn(-c3ccccc3)cc2/C=N/O)cc1OC .
Result block: 617 nM

Query block: In one line, give reported AC50 of the entry Cc1[nH]nc2c1C(c1ccccc1Br)C1=C(CC(C)(C)CC1=O)N2 (stereo unspecified) .
Result block: 180 nM

Query block: In one line, give reported AC50 of the entry Cc1ccc(-c2nn(-c3ccccc3)cc2/C=N/O)cc1 .
Result block: 313 nM

----------
# Target System: Glycogen synthase kinase-3 beta (Homo sapiens)
# Method: GSK3beta kinase inhibitors, SAR follow-up, biochemical, ADP-Glo luminescence, dry powder samples (AID 623998)
# Experimental Parameters: GSK3beta ADP-Glo luminescence kinase assay, 60 min
Inconclusive results are not listed.
Metric: AC50

Solved entries (count: 5):
# Compound, AC50
rows = [
    ("Cc1[nH]nc2c1C(c1ccccc1C#N)C1=C(CC(C)(C)CC1=O)N2 (stereo unspecified)", "134 nM"),
    ("Cc1[nH]nc2c1C(c1ccc(Cl)cc1)C1=C(CC(C)(C)CC1=O)N2 (stereo unspecified)", "4440 nM"),
    ("Cc1[nH]nc2c1C(c1cccc(F)c1)C1=C(CC(C)(C)CC1=O)N2 (stereo unspecified)", "540 nM"),
    ("Cc1[nH]nc2c1C(c1ccc(C(F)(F)F)cc1)C1=C(CC(C)(C)CC1=O)N2 (stereo unspecified)", "9290 nM"),
    ("COc1ccccc1C1C(C(C)=O)=C(C)Nc2n[nH]c(C)c21 (stereo unspecified)", "3000 nM"),
]

Now consider a different compound.
Query block: In one line, give reported AC50 of the entry Cc1[nH]nc2c1C(c1ccn[nH]1)C1=C(CC(C)(C)CC1=O)N2 (stereo unspecified) .
Result block: 1880 nM

----------
# Target System: UniProt P49841
# Method: GSK3beta kinase inhibitors, SAR follow-up, biochemical, ADP-Glo luminescence, dry powder samples (AID 623998)
# Experimental Parameters: GSK3beta ADP-Glo luminescence kinase assay, 60 min
Inconclusive results are not listed.
Metric: AC50

Query block: In one line, give reported AC50 of the entry Cc1ccccc1C1C2=C(CC(C)(C)CC2=O)Nc2n[nH]c(C)c21 (stereo not given) .
Result block: 455 nM

Query block: In one line, give reported AC50 of the entry Cc1ccc(C2C3=C(CC(C)(C)CC3=O)Nc3n[nH]c(C)c32)cc1 (stereo not given) .
Result block: 2160 nM

----------
# Target System: Glycogen synthase kinase-3 beta (Homo sapiens) (UniProt P49841)
# Method: GSK3beta kinase inhibitors, SAR follow-up, biochemical, ADP-Glo luminescence, dry powder samples (AID 623998)
# Experimental Parameters: GSK3beta ADP-Glo luminescence kinase assay, 60 min
Results filed as inconclusive are left out.
Entries and their measured AC50 follow.

# Compound, Metric, Reported
measured = [
    ("CC(C)COc1ccc(-c2nn(-c3ccccc3)cc2/C=N/O)cc1", "AC50", "3080 nM"),
    ("O/N=C/c1cn(-c2ccccc2)nc1-c1ccc(Cl)cc1", "AC50", "45.2 nM"),
]

Query block: Give AC50; test system Glycogen synthase kinase-3 beta (Homo sapiens) (UniProt P49841); compound Cc1[nH]nc2c1[C@@H](c1cccs1)C1=C(CC(C)(C)CC1=O)N2
Result block: 1910 nM

Query block: Give AC50; test system Glycogen synthase kinase-3 beta (Homo sapiens) (UniProt P49841); compound CC1(C)CC(=O)C2=C(C1)Nc1n[nH]c(C(F)(F)F)c1C2c1c(F)cccc1F (stereo not drawn)
Result block: 87.5 nM

Query block: Give AC50; test system Glycogen synthase kinase-3 beta (Homo sapiens) (UniProt P49841); compound Cc1[nH]nc2c1C(c1ccc(Cl)s1)C1=C(CC(C)(C)CC1=O)N2 (stereo not drawn)
Result block: 1140 nM

Query block: Give AC50; test system Glycogen synthase kinase-3 beta (Homo sapiens) (UniProt P49841); compound Cc1[nH]nc2c1C(c1ccsc1)C1=C(CC(C)(C)CC1=O)N2 (stereo not drawn)
Result block: 1370 nM

Query block: Give AC50; test system Glycogen synthase kinase-3 beta (Homo sapiens) (UniProt P49841); compound CC1(C)CC(=O)C2=C(C1)Nc1n[nH]c(C(F)(F)F)c1C2c1ccc(F)cc1C(F)(F)F (stereo not drawn)
Result block: 173 nM

Query block: Give AC50; test system Glycogen synthase kinase-3 beta (Homo sapiens) (UniProt P49841); compound O/N=C/c1cn(-c2ccccc2)nc1-c1ccc(F)cc1
Result block: 440 nM
